Target: Prostaglandin G/H synthase 1 (Ovis aries, UniProt P05979)
Sequence (P05979 whole entry): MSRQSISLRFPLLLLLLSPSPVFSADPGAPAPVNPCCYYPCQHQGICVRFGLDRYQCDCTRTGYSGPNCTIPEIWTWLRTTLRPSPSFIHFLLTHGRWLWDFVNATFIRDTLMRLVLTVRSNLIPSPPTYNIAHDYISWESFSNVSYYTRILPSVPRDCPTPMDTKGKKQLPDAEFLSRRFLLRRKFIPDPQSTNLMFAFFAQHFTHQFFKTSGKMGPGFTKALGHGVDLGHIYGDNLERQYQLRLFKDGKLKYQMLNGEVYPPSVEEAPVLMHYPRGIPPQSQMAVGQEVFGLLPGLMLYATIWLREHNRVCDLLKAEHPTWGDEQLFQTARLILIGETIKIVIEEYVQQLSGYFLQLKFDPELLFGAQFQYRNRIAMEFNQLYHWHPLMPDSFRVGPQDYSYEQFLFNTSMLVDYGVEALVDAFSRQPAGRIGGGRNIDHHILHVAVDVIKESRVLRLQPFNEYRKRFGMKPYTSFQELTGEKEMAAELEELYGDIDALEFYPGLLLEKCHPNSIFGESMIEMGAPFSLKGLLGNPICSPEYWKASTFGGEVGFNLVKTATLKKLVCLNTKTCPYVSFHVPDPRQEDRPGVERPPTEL
Give measured IC50 for each item. Keep answers brief.

Let me check: COc1ccc(-c2noc(C)c2-c2ccc(Oc3ccccc3)cc2)cc1 , system Prostaglandin G/H synthase 1 (Ovis aries, UniProt P05979), measured IC50 is > 50 µM

Prostaglandin G/H synthase 1 (Ovis aries, UniProt P05979) assay, compound Cc1onc(-c2ccc(OCc3ccccc3)cc2)c1-c1ccc(OCc2ccccc2)cc1 , recorded IC50 = > 50 µM

The reported Prostaglandin G/H synthase 1 (Ovis aries, UniProt P05979) IC50 of O=C(O)Cc1onc(-c2ccc(Oc3ccccc3)cc2)c1-c1ccc(Oc2ccccc2)cc1 is > 50 µM

###

Assignment: determine reported pIC50 for the given molecules.
Target: Prostaglandin G/H synthase 1 (Ovis aries)
pIC50: −log10 of the molar value.

Form field pIC50, entry COc1ccc(-c2noc(CC(=O)O)c2-c2ccc(Oc3ccccc3)cc2)cc1 : < 4.30

# pIC50 (molecule: CCCCOc1ccc(-c2c(-c3ccc(OC)cc3)noc2C)cc1 ) is < 4.30

// field: pIC50; key: CCCCOc1ccc(-c2noc(C)c2-c2ccc(OCCCC)cc2)cc1 ; value = < 4.30
